These data points were gathered from patent US20240254245A1.

# TARGET ENTITY: T1, human RANKL protein (Sino Biological, 11682-HNCH) (human, UniProt O14788 136-317, limits assumed)
# T1 construct: Bought protein
# T1 sequence (looked up): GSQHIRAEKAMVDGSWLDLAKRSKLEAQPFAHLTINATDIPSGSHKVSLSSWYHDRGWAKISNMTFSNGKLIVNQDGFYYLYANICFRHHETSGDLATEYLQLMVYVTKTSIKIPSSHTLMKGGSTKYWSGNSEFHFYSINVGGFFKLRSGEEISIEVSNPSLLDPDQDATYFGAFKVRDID
# PROTOCOL DETAILS: SPR (Biacore), antibody captured on Protein A chip, RANKL in flow, 1:1 fit

- BINDER: "3-37L (antibody, IgG4, V domains shown, Variable regions fused to human constant regions) VH: EVQLLESGGGLVQPGGSLRLSCAASGFTFSSYAMSWVRQAPGKGLEWVSGITGSGGSTYYADSVKGRFTISRDNSKNTLYLQMNSLRAEDTAVYYCAKDPGTTVIMSWFDPWGQGTLVTVSS VL: EIVLTQSPGTLSLSPGERATLSCRASQAIRGRKLAWYQQKPGQAPRLLIYDTSSRATGIPDRFSGSGSGTDFTLTISRLEPEDFAVFYCQQYGSSPRTFGQGTKVEIK"
  kon: "15500 M⁻¹ s⁻¹"
- BINDER: "3-83L (antibody, V domains shown, Variable regions fused to human constant regions) VH: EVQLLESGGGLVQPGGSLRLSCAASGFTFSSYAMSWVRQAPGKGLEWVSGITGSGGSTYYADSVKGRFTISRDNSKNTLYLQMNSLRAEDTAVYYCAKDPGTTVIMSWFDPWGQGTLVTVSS VL: EIVLTQSPGTLSLSPGERATLSCRASQALGVRGLAWYQQKPGQAPRLLIYGASSRATGIPDRFSGSGSGTDFTLTISRLEPEDFAVFYCQQYGSSPRTFGQGTKVEIK"
  kon: "15600 M⁻¹ s⁻¹"
- BINDER: "3-85L (antibody, V domains shown, Variable regions fused to human constant regions) VH: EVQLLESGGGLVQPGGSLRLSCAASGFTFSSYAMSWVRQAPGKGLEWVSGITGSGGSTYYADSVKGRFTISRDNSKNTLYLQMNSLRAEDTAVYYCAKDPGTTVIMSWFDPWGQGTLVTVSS VL: EIVLTQSPGTLSLSPGERATLSCRASQSIPGPRLAWYQQKPGQAPRLLIYGASSRATGIPDRFSGSGSGTDFTLTISRLEPEDFAVFYCQQYGSSPRTFGQGTKVEIK"
  kon: "15000 M⁻¹ s⁻¹"
